# Read-out: Tissue Factor, F3 (gene 2152)
# test summary: BSK_LPS_TissueFactor: BioMAP Diversity Plus: LPS Assay for Tissue Factor Biomarker Activity (AID 2283084)
# applied conditions: primary human HUVEC with PBMC; actives raise or lower the signal
The source made the active and inactive calls. How the source made its calls: active means hit-call score of the fitted dose curve at least 0.9, where 1 is the maximum; inactive means score below 0.9.
Permitted responses: active, inactive

Assay result, entry c1cc(-c2ccncc2)ccn1 — outcome?
inactive

Assay result, entry CC(=O)Oc1ccccc1C(=O)O — outcome?
inactive

Assay result, entry CC(CO)OC(C)CO (stereo unspecified) (tested in a mixture with another compound) — outcome?
inactive

Assay result, entry Cc1ccc(C(C)C)c(O)c1 — outcome?
inactive

Assay result, entry CC1(C)CC(N=C=O)CC(C)(CN=C=O)C1 (stereo unspecified) — outcome?
inactive

Assay result, entry CCCCCCCCCCO — outcome?
active
